Tested on: winter wheat (Triticum aestivum)
Assay: Test C pre-/postemergence plant response
Format: in vivo
Conditions: Preemergence, 8 g ai/ha; scale 0 to 100 (0 no effect, 100 complete control)
Reported Plant response rating, Wheat, Winter is given for each of the following compounds.

| Compound | Plant response rating, Wheat, Winter |
| --- | --- |
| COC(=O)Oc1cnn(C)c(=O)c1-n1nc(-c2ccc(Cl)cc2)cc1C [Compound 33] | 0 |
| CCc1cc(-c2ccc(F)cc2)nn1-c1c(O)cnn(C)c1=O [Compound 25] | 0 |
| CCc1cc(-c2ccc(C(F)(F)F)cc2)nn1-c1c(O)cnn(C)c1=O [Compound 11] | 20 |
| Cc1cn(-c2ccc(Cl)cc2)nc1-c1c(O)cnn(C)c1=O [Compound 30] | 0 |
| Cc1cc(-c2ccc(Cl)cc2)nn1-c1c(OC(=O)OCC(C)C)cnn(C)c1=O [Compound 57] | 15 |

###

Reported Plant response rating, Rice is given for each of the following molecules.
Tested on: rice (Oryza sativa)
Assay: Test B flooded paddy test plant response
Type: in vivo
Conditions: Flood, 31 g ai/ha; scale 0 to 100
Measured parameter: Plant response rating, Rice

| Compound structure string | Measured parameter | Data value |
| --- | --- | --- |
| CCc1cc(-c2ccc(C(F)(F)F)cc2)nn1-c1c(OS(C)(=O)=O)cnn(C)c1=O | Plant response rating, Rice | 0 |
| COCc1cc(-c2ccc(Br)cc2)nn1-c1c(O)cnn(C)c1=O | Plant response rating, Rice | 0 |
| COC(=O)Oc1cnn(C)c(=O)c1-n1nc(-c2ccc(Cl)cc2)cc1C | Plant response rating, Rice | 30 |
| CCc1cc(-c2ccc(Cl)s2)nn1-c1c(O)cnn(C)c1=O | Plant response rating, Rice | 0 |
| Cc1cc(-c2ccc(C(F)(F)F)cc2)nn1-c1c(OC(=O)C(C)(C)C)cnn(C)c1=O | Plant response rating, Rice | 0 |
| Cc1cc(-c2ccc(Cl)cc2)nn1-c1c(OC(=O)OCC(C)C)cnn(C)c1=O | Plant response rating, Rice | 0 |
| CCc1cc(-c2ccc(C(F)(F)F)cc2)nn1-c1c(O)cnn(CC)c1=O | Plant response rating, Rice | 0 |
| Cc1cc(-c2ccc(Cl)cc2)nn1-c1c(OC(=S)N(C)C)cnn(C)c1=O | Plant response rating, Rice | 0 |
| COc1ccc(-c2cc(C)n(-c3c(O)cnn(C)c3=O)n2)cc1 | Plant response rating, Rice | 0 |
| Cc1cc(-c2ccc(Cl)cc2)nn1-c1c(OS(C)(=O)=O)cnn(C)c1=O | Plant response rating, Rice | 0 |
| CCc1cc(-c2ccc(Cl)cc2)nn1-c1c(OC(=O)C(C)(C)C)cnn(C)c1=O | Plant response rating, Rice | 35 |
| CCc1cc(-c2ccc(Cl)cc2)nn1-c1c(OC(=O)OC(C)C)cnn(C)c1=O | Plant response rating, Rice | 15 |

###

Tested on: large crabgrass (Digitaria sanguinalis)
Experiment: Test B pre-/postemergence plant response
Type: in vivo
Settings: Preemergence, 62 g ai/ha; scale 0 to 100
Reported Plant response rating, Crabgrass, Large is given for each of the following compounds.

| Compound | Measured target | Plant response rating, Crabgrass, Large |
| --- | --- | --- |
| Cc1cc(-c2ccc(Cl)cc2)nn1-c1c(OC(=O)c2ccccc2)cnn(C)c1=O [Compound 48] | large crabgrass (Digitaria sanguinalis) | 0 |
| CCc1cc(-c2ccc(Cl)cc2)nn1-c1c(OC(=O)OC(C)C)cnn(C)c1=O [Compound 41] | large crabgrass (Digitaria sanguinalis) | 20 |
| Cn1ncc(O)c(-c2nn(-c3ccc(Cl)cc3)cc2Br)c1=O [Compound 31] | large crabgrass (Digitaria sanguinalis) | 100 |
| CCc1cc(-c2ccc(Cl)c(Cl)c2)nn1-c1c(O)cnn(C)c1=O [Compound 20] | large crabgrass (Digitaria sanguinalis) | 60 |
| Cc1cc(-c2ccc(Br)cc2)nn1-c1c(O)cnn(C)c1=O [Compound 4] | large crabgrass (Digitaria sanguinalis) | 100 |
| Cc1cc(-c2ccc(Br)cc2)nn1-c1c(OC(=O)OC(C)C)cnn(C)c1=O [Compound 6] | large crabgrass (Digitaria sanguinalis) | 100 |
